Below, each entry is listed with its recorded IC50.
# assay-explanation: Antiproliferative activity against human […] cells assessed as cell growth inhibition after 48 hrs by MTT assay
# Type: functional, cell-based
Value expressed in µM; do not type the unit.

>  <structure-string>
Cc1ccc(NC(=S)NC(=O)c2ccc(OCc3ccc(Cl)c(Cl)c3)cc2)cc1-c1nc2ccccc2[nH]1

>  <recorded-endpoint>
IC50

>  <value-observed>
8.41

$$$$

Recall and state the measured IC50 for Cc1ccc(NC(=O)NC(=O)c2ccc(OCc3cccc(Cl)c3)cc2)cc1-c1nc2ccccc2[nH]1 .
28

Recall and state the measured IC50 for Cc1ccc(NC(=O)NC(=O)c2ccc(OCc3ccc(Cl)c(Cl)c3)cc2)cc1-c1nc2ccccc2[nH]1 .
5.82

Recall and state the measured IC50 for Cc1ccc(NC(=S)NC(=O)c2ccc(OCc3ccc(C(F)(F)F)cc3)cc2)cc1-c1nc2ccccc2[nH]1 .
10.2

====

# assay-explanation: Antiproliferative activity against human SW620 cells assessed as cell growth inhibition after 48 hrs by MTT assay
# Type: functional, cell-based
# test-parameters: SW-620, 48 h
recorded-endpoint: pIC50
The quantity pIC50 is defined as the negative base-10 logarithm of the molar concentration.

Recall and state the measured pIC50 for Cc1ccc(NC(=O)NC(=O)c2ccc(OCc3ccc(C(F)(F)F)cc3)cc2)cc1-c1nc2ccccc2[nH]1 .
4.82

Recall and state the measured pIC50 for Cc1ccc(NC(=O)NC(=O)c2ccc(OCc3cccc(C(F)(F)F)c3)cc2)cc1-c1nc2ccccc2[nH]1 .
5.02

Recall and state the measured pIC50 for O=C(NC(=S)Nc1ccc(Cl)c(-c2nc3ccccc3[nH]2)c1)c1ccc(OCc2ccc(Cl)cc2Cl)cc1 .
4.30

====

Below, each entry is listed with its recorded IC50.
# assay-explanation: Antiproliferative activity against human MGC803 cells assessed as cell growth inhibition after 48 hrs by MTT assay
# Type: functional, cell-based
# test-parameters: MGC-803, 48 h

>  <structure-string>
Cc1ccc(NC(=S)NC(=O)c2ccc(OCc3ccccc3F)cc2)cc1-c1nc2ccccc2[nH]1

>  <value-observed>
3.07 µM

$$$$
>  <structure-string>
Cc1ccc(COc2ccc(C(=O)NC(=S)Nc3ccc(C)c(-c4nc5ccccc5[nH]4)c3)cc2)cc1

>  <value-observed>
4.98 µM

$$$$
>  <structure-string>
CS(=O)(=O)c1ccc(C(=O)Nc2ccc(Cl)c(-c3ccccn3)c2)c(Cl)c1

>  <value-observed>
2.39 µM

$$$$
>  <structure-string>
Cc1ccc(COc2ccc(C(=O)NC(=O)Nc3ccc(Cl)c(-c4nc5ccccc5[nH]4)c3)cc2)cc1

>  <value-observed>
3.86 µM

$$$$
>  <structure-string>
O=C(NC(=S)Nc1ccc(Cl)c(-c2nc3ccccc3[nH]2)c1)c1ccc(OCc2ccc(C(F)(F)F)cc2)cc1

>  <value-observed>
5.33 µM

$$$$
>  <structure-string>
Cc1ccc(NC(=O)NC(=O)c2ccc(OCc3cccc(Cl)c3Cl)cc2)cc1-c1nc2ccccc2[nH]1

>  <value-observed>
> 100 µM

$$$$
>  <structure-string>
Cc1ccc(NC(=S)NC(=O)c2ccc(OCc3ccc(C(F)(F)F)cc3)cc2)cc1-c1nc2ccccc2[nH]1

>  <value-observed>
6.5 µM

$$$$

Okay, next one:
Recall and state the measured IC50 for Cc1ccc(NC(=S)NC(=O)c2ccc(OCc3ccc(Cl)cc3Cl)cc2)cc1-c1nc2ccccc2[nH]1 .
3.45 µM

Hey, just so you know, these numbers are from ChEMBL document CHEMBL3739278.
